Origin of the recorded values: PubChem BioAssay (NCI)

Tested on: RXF 393 renal
Test: NCI-60 one-dose screen, 48 h
Settings: 10 µM unless noted
Method: Cells are grown in 96 well plates and exposed to the test compound for 48 hours. Compounds are tested at a single concentration, which is 10^-5 M for most compounds. The reported endpoint is percent growth (GI% or GIPRCNT), where numbers from 0 - 100% represent growth inhibition, and numbers from -100% - 0 represent cell death. For example, a value of 40 represents 60% growth inhibition. A value of 0 means no net growth occurred over the course of the experiment. […]
The panel holds about 83,000 compounds, 20% with a hit somewhere; the sample as a whole holds those more often. Calls of active or inactive are those of the source. How the source made its calls: active means growth percent below 10; inactive means the rest.
Labels: t for active, f for inactive

In [3]: df
Out[3]:
                                    compound  classification
 0  O=C(NCCNc1nccc(-c2c(-c3cccc(O)c3)nc3sccn23)n1)c1ccc(N2CCOCC2)c(C(F)(F)F)c1               f
 1    NC(=NCCCOc1ccc(F)cc1)Nc1ccc(Cl)c(Cl)c1               f
 2  O=C(Nc1ccc(-n2ccc3c(NC(=O)c4ccccc4)nccc32)cc1)c1ccc(Cl)c(C(F)(F)F)c1               f
 3  COc1ccccc1N1CCN(CC(O)COc2c(Br)c(Br)c(Br)c3c2OC(C)(C)C3)CC1 (stereo not drawn)               f
 4                    Oc1ccccc1/C=N/c1ccccn1               f
 5  CN(C)c1ccc(/C=c2\s/c(=C\C(=O)C(C)(C)C)[nH]c2=O)cc1               f
 6      CCc1c(C)c2cc3c(c(C)c2oc1=O)OCC(=O)N3               f
 7  CCCCCn1ncc(-c2c(O)c(O)cc3c(O)c(-c4c(C)cc5c(-c6cnn(CCCCC)n6)c(O)c(O)cc5c4O)c(C)cc23)n1               t
 8  COc1cc(Nc2ncccc2C(=O)Nc2nc3ccc(F)cc3s2)cc(OC)c1OC               f
 9   COc1cc(/C=C/C(=O)N2CCC=CC2=O)cc(OC)c1OC               t
10  CCCCOc1nc2ccc(Cl)cc2cc1/C=C/C(=O)/C=C/c1ccc(Cl)cc1               f
11  c1ccc2nc(Cn3cc[n+](Cc4ccc5ccccc5n4)c3)ccc2c1               f
12            c1ccc2c(c1)Oc1cccnc1-n1nccc1-2               f
